- Test system: Rattus norvegicus
- Assay Method Text: Antihyperlipidemic activity in Charles-Foster rat assessed as reversal of triton-induced increase in plasma phospholipid level at 150 mg/kg, po after 18 hrs relative to triton-treated control
- Type: functional
Recorded Activity by entry
Endpoint: Activity (%)

>>> reported_value("CCc1cc(C(c2c[nH]c3ccc(OC)cc23)c2c[nH]c3ccc(OC)cc23)cc2cc(C(=O)c3ccc(OC)cc3)oc12")
-29
>>> reported_value("COc1ccc(C(=O)c2cc3cc(C(c4c[nH]c5ccc(OC)cc45)c4c[nH]c5ccc(OC)cc45)cc(C)c3o2)cc1")
-24
>>> reported_value("CCCc1cc(C(c2c[nH]c3ccc(OC)cc23)c2c[nH]c3ccc(OC)cc23)cc2cc(C(=O)c3ccc(OC)cc3)oc12")
-26
>>> reported_value("COc1ccc(C(=O)c2cc3cc(C(c4c[nH]c5ccc(OC)cc45)c4c[nH]c5ccc(OC)cc45)cc(C(C)(C)C)c3o2)cc1")
-23

====

Recorded Activity by entry
- System: Rattus norvegicus
- Assay Method Text: Antihyperlipidemic activity in Charles-Foster rat assessed as reversal of triton-induced increase in plasma triglyceride level at 100 mg/kg, po after 18 hrs relative to triton-treated control
- Type: functional
Endpoint: Activity (%)

>>> reported_value("Cc1ccc(C(=O)c2cc3cc(C(c4c[nH]c5ccccc45)c4c[nH]c5ccccc45)cc(C)c3o2)cc1")
-9
>>> reported_value("COc1ccc(C(=O)c2cc3cc(C(c4c[nH]c5ccccc45)c4c[nH]c5ccccc45)cc(C(C)C)c3o2)cc1")
-16
>>> reported_value("CC(C)(C)c1cc(C(c2c[nH]c3ccccc23)c2c[nH]c3ccccc23)cc2cc(C(=O)c3ccc(Cl)cc3)oc12")
-10
>>> reported_value("CCc1cc(C(c2c[nH]c3ccc(OC)cc23)c2c[nH]c3ccc(OC)cc23)cc2cc(C(=O)c3ccc(OC)cc3)oc12")
-28
>>> reported_value("COc1ccc(C(=O)c2cc3cc(C(c4c[nH]c5ccccc45)c4c[nH]c5ccccc45)cc(C(C)(C)C)c3o2)cc1")
-8
>>> reported_value("CC(C)c1cc(C(c2c[nH]c3ccccc23)c2c[nH]c3ccccc23)cc2cc(C(=O)c3ccc(C#N)cc3)oc12")
-10
>>> reported_value("CC(C)c1cc(C(c2c[nH]c3ccccc23)c2c[nH]c3ccccc23)cc2cc(C(=O)c3ccc(Cl)cc3)oc12")
-10
>>> reported_value("COc1ccc(C(=O)c2cc3cc(C(c4c[nH]c5ccccc45)c4c[nH]c5ccccc45)cc(C)c3o2)cc1")
-10
>>> reported_value("CCc1cc(C(c2c[nH]c3ccccc23)c2c[nH]c3ccccc23)cc2cc(C(=O)c3ccc(OC)cc3)oc12")
-9
>>> reported_value("Cc1cc(C(c2c[nH]c3ccccc23)c2c[nH]c3ccccc23)cc2cc(C(=O)c3ccc(Cl)cc3)oc12")
-11
>>> reported_value("Cc1cc(C(c2c[nH]c3ccccc23)c2c[nH]c3ccccc23)cc2cc(C(=O)c3ccc(C#N)cc3)oc12")
-7
>>> reported_value("COc1ccc(C(=O)c2cc3cc(C(c4c[nH]c5ccc(OC)cc45)c4c[nH]c5ccc(OC)cc45)cc(Cl)c3o2)cc1")
-22
>>> reported_value("CCCc1cc(C(c2c[nH]c3ccc(OC)cc23)c2c[nH]c3ccc(OC)cc23)cc2cc(C(=O)c3ccc(OC)cc3)oc12")
-23
>>> reported_value("CCc1cc(C(c2c[nH]c3ccc([N+](=O)[O-])cc23)c2c[nH]c3ccc([N+](=O)[O-])cc23)cc2cc(C(=O)c3ccc(OC)cc3)oc12")
-4
>>> reported_value("CCc1cc(C(c2c[nH]c3ccccc23)c2c[nH]c3ccccc23)cc2cc(C(=O)c3ccc(Cl)cc3)oc12")
-21
>>> reported_value("COc1ccc(C(=O)c2cc3cc(C(c4c[nH]c5ccc(OC)cc45)c4c[nH]c5ccc(OC)cc45)cc(C)c3o2)cc1")
-24
